# Test system: microbial hyaluronidase
# Type: biochemical, Streptomyces actinocidus
# condition description: reagent or salt 10^−2 M

compound	Hyaluronidase activity (%)
O=S(=O)([O-])[O-].[Cu+2]	44%
OCCS	0%
[Cl-].[K+]	100%
O=C(O)c1cc[c]([Hg][Cl])cc1 [para-Chloromercury-benzoate]	80%
[N-]=[N+]=[N-].[Na+]	100%
O=[N+]([O-])[O-].[Ag+]	100%
O=S(=O)([O-])[O-].[Zn+2]	100%
[Cl][Fe]([Cl])[Cl]	35%
[Ca+2].[Cl-].[Cl-]	100%
II	0%
[Cl][Mn][Cl]	100%
[Cl-].[Na+]	100%
O=S(=O)([O-])[O-].[Li+].[Li+]	100%
O=C(O)CN(CCN(CC(=O)O)CC(=O)O)CC(=O)O	95%
O=S(=O)([O-])[O-].[Fe+2]	100%
